# reported Δ Heart Rate; entries follow
- Test system: heart rate (chronotropic response)
- EXPERIMENTAL_DETAILS: Pharmacodynamics in conscious dogs during i.v. administration (chronotropic response and offset)
- Type: in vivo, dog
- CONDITION_SUMMARY: Example 13; i.v. stepwise ascending doses up to 100 ng/kg/min
Field format: numeric only.

Entry under test: N#CCCCNC[C@H](O)c1ccc(O)c(O)c1 [Example 1] . Its Δ Heart Rate was 109

// sample CSCCCNC[C@H](O)c1ccc(O)c(O)c1 [Example 11] , its Δ Heart Rate was 109

Entry C[S+]([O-])CCCNC[C@H](O)c1ccc(O)c(O)c1 (stereo partly shown) [Example 6] — recorded Δ Heart Rate = 93

Entry COCCC(C)NC[C@H](O)c1ccc(O)c(O)c1 (stereo partly shown) [Example 4] ; Δ Heart Rate = 98

====

T50 by entry:
- Tested on: heart rate (chronotropic response)
- EXPERIMENTAL_DETAILS: Pharmacodynamics in conscious dogs during i.v. administration (chronotropic response and offset)
- Format: in vivo, dog
- CONDITION_SUMMARY: Example 13; i.v., from termination of infusion (100 ng/kg/min) to 50% fall in heart rate towards baseline
The figure you give is taken to be in min; do not add the unit.

Take a look at these entries with their results.
Lab note: COCCC(C)NC[C@H](O)c1ccc(O)c(O)c1 (stereo partly shown) gave T50 of 5.0

For reference, reported T50 for CSCCCNC[C@H](O)c1ccc(O)c(O)c1 stands at 3.6

Value of measured T50 for the entry C[S+]([O-])CCCNC[C@H](O)c1ccc(O)c(O)c1 (stereo partly shown) : 5.4

Now let's try a different one.
Record N#CCCCNC[C@H](O)c1ccc(O)c(O)c1 , field T50: 6.9

====

- ASSAYED_SYSTEM: α-adrenoreceptor
- EXPERIMENTAL_DETAILS: In vitro bioassay for α-adrenergic activity (contraction of aortic rings)
- CONDITION_SUMMARY: rabbit aortic rings, propranolol pretreated, 37° C., pH=7.4, read-out: α (aorta)
pEC50: −log10 of the molar value.
ASSAY_READOUT: pEC50

Use the examples below as a reference point.
Observed pEC50, α-adrenoreceptor, C[S+]([O-])CCCNC[C@H](O)c1ccc(O)c(O)c1 (stereo partly drawn) [Example 6] : < 5.00

Entry CCSCCCNC[C@H](O)c1ccc(O)c(O)c1 [Example 10] , tested on α-adrenoreceptor, has a reported pEC50 of < 5.00

// next item, pEC50 requested
The compound COCCC(C)NC[C@H](O)c1ccc(O)c(O)c1 (stereo partly drawn) [Example 4] , when measured on α-adrenoreceptor, yielded pEC50 of < 4.00

====

- ASSAYED_SYSTEM: β1-adrenoreceptor (Cavia porcellus)
- Construct: the hearts were excised and placed in ice-cold oxygenated Krebs Ringer buffer; tissue Charles River Laboratories (animals)
- EXPERIMENTAL_DETAILS: In vitro bioassay for β1-adrenergic activity (atrial rate)
- CONDITION_SUMMARY: guinea pig atria, 37° C., pH=7.4, approximately four atrial preparations per compound
Measured EC50, listed per entry.

Field: example entries. Status: answers known.
Entry COCCC(C)NC[C@H](O)c1ccc(O)c(O)c1 (stereo partly shown) ; EC50 = 1.1 nM

Briefly, EC50 measured for COCCCNC[C@H](O)c1ccc(O)c(O)c1 : 19 nM

Read the next record carefully.
// CC(CCCC#N)NC[C@H](O)c1ccc(O)c(O)c1 (stereo partly shown) : EC50 value = 3.4 nM

====

- ASSAYED_SYSTEM: β1-adrenoreceptor (Cavia porcellus, UniProt H0W3H1)
- Construct: the hearts were excised and placed in ice-cold oxygenated Krebs Ringer buffer; tissue Charles River Laboratories (animals); host or cells: guinea pig atria (right and left, paired)
- Sequence (H0W3H1 1-470): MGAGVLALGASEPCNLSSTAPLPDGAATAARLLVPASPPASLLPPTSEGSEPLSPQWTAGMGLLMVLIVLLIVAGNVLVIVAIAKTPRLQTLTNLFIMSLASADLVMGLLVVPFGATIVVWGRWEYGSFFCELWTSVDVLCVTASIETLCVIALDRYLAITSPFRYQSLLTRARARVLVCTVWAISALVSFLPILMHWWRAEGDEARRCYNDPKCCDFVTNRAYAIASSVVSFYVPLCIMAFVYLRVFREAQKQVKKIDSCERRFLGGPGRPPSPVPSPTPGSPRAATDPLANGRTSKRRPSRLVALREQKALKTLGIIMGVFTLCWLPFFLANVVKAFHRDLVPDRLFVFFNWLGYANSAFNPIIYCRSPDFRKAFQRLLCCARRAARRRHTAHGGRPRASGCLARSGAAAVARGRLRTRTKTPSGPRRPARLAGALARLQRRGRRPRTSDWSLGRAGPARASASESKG
- EXPERIMENTAL_DETAILS: In vitro bioassay for β1-adrenergic activity (atrial rate)
- Type: biochemical
- CONDITION_SUMMARY: guinea pig atria, 37° C., pH=7.4, approximately four atrial preparations per compound
ASSAY_READOUT: pEC50
# pEC50 = -log10(concentration in molar units)

Reference set (3 entries):
response.value for C[S+]([O-])CCCCNC[C@H](O)c1ccc(O)c(O)c1 (stereo partly shown) (field: pEC50) = 7.88

So for CSCCCNC[C@H](O)c1ccc(O)c(O)c1 , the logged pEC50 turned out to be 8.01

pEC50 recorded for this molecule, CSCCCCNC[C@H](O)c1ccc(O)c(O)c1 , is 8.54

---
Reported pEC50 of CSCCCC(C)NC[C@H](O)c1ccc(O)c(O)c1 (stereo partly shown) : 9.22
